Biological target: T1, PUF4 RNA-binding domain (Saccharomyces cerevisiae, UniProt P25339 537-888)
T1 sequence: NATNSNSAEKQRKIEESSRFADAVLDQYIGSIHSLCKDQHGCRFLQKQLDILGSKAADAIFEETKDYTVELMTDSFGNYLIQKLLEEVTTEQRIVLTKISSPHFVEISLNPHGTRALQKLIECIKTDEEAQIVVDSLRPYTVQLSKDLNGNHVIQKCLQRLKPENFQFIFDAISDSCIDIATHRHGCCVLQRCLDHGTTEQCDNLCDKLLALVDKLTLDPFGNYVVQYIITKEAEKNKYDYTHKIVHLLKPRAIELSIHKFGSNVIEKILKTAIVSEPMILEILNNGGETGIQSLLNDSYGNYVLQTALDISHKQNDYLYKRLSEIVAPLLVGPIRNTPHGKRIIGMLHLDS
Experiment: Mg; RNA-MaP; 20 mM Na-HEPES pH 7.4, 30 mM KOAc, 0.75 mM MgCl2, 0.1% Tween-20, 5% glycerol, 0.1 mg/mL BSA, 2 mM DTT; 25 C; 0.0125-409.6 nM protein
Details: tags: N-His6-TEV cleaved; C-SNAP kept, Cy3B-labelled; label: tethered on chip by stalled RNA polymerase
Measure name: pKd
Numbers only, as −log10 of the molar value.

Some entries whose results are on file:
>  <Binder>
Ic_S4_P3E.1_K3.1_C3.1_H3.1_A3.1_[T5C]_[A6T]_F3.1_[T7C]_[A8T]_T3.1 (ssRNA) RNA: UUUGACAACUGAUCGUUCUUUCUUGUACUCUUUCUUUCUCGAUCAGUUGUCUUU

>  <pKd>
7.91

$$$$
>  <Binder>
ACAAACUUUAUAUAUAUAACAAAC (ssRNA) [Id_ii_S3_P3E.3_K3.2_C3.2_[C-2T]_H3.2_A3.1_F3.1_T3.2]

>  <pKd>
6.23

$$$$
>  <Binder>
UCUCUUAAUGUAUAUUAUCUCUCUU (ssRNA) [Id_ii_S1_P4E.2_K4.1_C4.2_[C-2A]_[T-1A]_H4.1_A4.1_F4.1_T4.2_[G10T]_[T11C]]

>  <pKd>
8.62

$$$$
>  <Binder>
UCUCUUUGUACACGCUCUCUU (ssRNA) [Ic_S1_P4E.1_K4.1_C4.1_H4.1_A4.1_[T5C]_[T7C]_F4.1_[T8G]_[A9C]_T4.1]

>  <pKd>
6.84

$$$$
>  <Binder>
Ie_S2_P5E.1_K5.1_C5.1_H5.1_A5.1_F5.1_[+8C]_T5.1 (ssRNA) RNA: UUUGAUUAAUAUGAUAUCGUUCUUUCUUGUAUUAUCUAUUCUUUCUCGAUAUCAUAUUAAUCUUU

>  <pKd>
7.94

$$$$
>  <Binder>
ACAAACGGUAUAUAUAUGACAAAC (ssRNA) [Id_ii_S3_P3E.3_K3.2_C3.2_[C-2G]_[T-1G]_H3.2_A3.1_F3.1_T3.2_[A10G]]

>  <pKd>
6.26

$$$$

Let us examine a further case.
Name the recorded pKd for Ib_S4_P4E.1_K4.1_C4.1_H4.1_A4.1_[T5A]_F4.1_[A9G]_T4.1 (ssRNA) RNA: UUUGACAACUGAUCGUUCUUUCUUGUAAAUUGUUCUUUCUCGAUCAGUUGUCUUU . 7.71

Source of measurements: paper PMC9352680
